// provenance: patent US8822517B2

system-name: histaminergic H1 receptor (Homo sapiens)
Sequence (P35367 whole entry): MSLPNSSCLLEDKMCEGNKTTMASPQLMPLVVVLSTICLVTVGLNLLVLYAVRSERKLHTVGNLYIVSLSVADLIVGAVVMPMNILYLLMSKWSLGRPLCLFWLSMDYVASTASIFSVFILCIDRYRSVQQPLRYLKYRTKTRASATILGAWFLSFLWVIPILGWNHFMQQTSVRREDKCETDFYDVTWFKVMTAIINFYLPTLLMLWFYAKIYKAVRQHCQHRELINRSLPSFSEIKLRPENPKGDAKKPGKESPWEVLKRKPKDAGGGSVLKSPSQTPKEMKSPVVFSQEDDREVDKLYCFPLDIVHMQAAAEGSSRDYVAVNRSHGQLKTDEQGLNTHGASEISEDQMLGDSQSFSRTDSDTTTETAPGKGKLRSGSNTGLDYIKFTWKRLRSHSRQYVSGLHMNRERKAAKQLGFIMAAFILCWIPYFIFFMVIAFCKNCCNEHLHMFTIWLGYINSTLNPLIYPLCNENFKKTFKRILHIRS
measurement-notes: Cellular functional assay, histaminergic H1 receptor (agonism/antagonism)
Assay type: cell-based
test-context: read-out: H1 -antag. [%]
Please enter true (1) where inhibition at 1 µM is greater than or equal to 60%, and false (0) where it is lower.

Answered cases to consult:
{"columns": ["compound", "discrete-label"],
 "data": [
  ["O=S(=O)(NCCCCN1CCN(c2nsc3ccccc23)CC1)c1ccc2ccccc2c1 [Compound 2]", "false (0)"],
  ["O=S(=O)(NCCCCN1CCC(c2noc3cc(F)ccc23)CC1)c1cc2ccc(Cl)cc2s1 [Compound 314]", "false (0)"],
  ["O=S(=O)(NCCCN1CCC(c2noc3cc(F)ccc23)CC1)c1ccc(F)c(Cl)c1 [Compound 331]", "true (1)"],
  ["O=S(=O)(NCCCCN1CCN(c2noc3ccccc23)CC1)c1ccc2cc(Cl)ccc2c1 [Compound 79]", "false (0)"]
]}

Turning now to a further compound:
Could you tell me if the measured inhibition at 1 µM of O=S(=O)(NCCCCN1CCN(c2nsc3ccccc23)CC1)c1cc2ccc(Cl)cc2s1 [Compound 241] reaches 60% or more?
false (0)
